# Tested on: PAF-induced aggregation (rabbit platelet plasma)
# run description: Platelet aggregation inhibitory action on PAF-induced aggregation
# Format: cell-based
# test context: Oryctolagus cuniculus, 0.05 h, 100 μM, PAF 10-50 μg/ml, 37° C., 3 min incubation, hydrochloride salt, read-out: inhibition ratio, PAF-induced platelet aggregation
Everything with inhibition at 100 µM lower than 50% is N; everything else, including exactly 50%, is Y.

>>> assigned_class("CCCCN1CCN(CCOc2nc(CC)c(CC)nc2C(C)C)CC1")
"Y"
>>> assigned_class("CCCCCCc1nc2c(nc1OCCN1CCN(Cc3ccccc3)CC1)CCCC2")
"Y"
>>> assigned_class("CCCCCc1nc2c(nc1OCCN1CCN(Cc3ccccc3)CC1)CCCC2")
"Y"
>>> assigned_class("CCc1nc(C)c(C)nc1OC(C(=O)NCCN1CCOCC1)c1ccccc1 (stereo not drawn)")
"N"
>>> assigned_class("CCCCCCCCCCCCCCc1nc2c(nc1OCCN1CCN(CCCC)CC1)CCCC2")
"Y"
>>> assigned_class("Cc1nc(C)c(OCCN2CCCN(Cc3ccc(Cl)cc3)CC2)nc1C")
"N"
>>> assigned_class("CCCCCCCCCCCCc1nc2c(nc1OCCN1CCN(CCCC)CC1)CCCC2")
"Y"
>>> assigned_class("CCc1nc(C)c(C)nc1OC(C(=O)NCCN1CCCN(Cc2ccc(F)cc2)CC1)c1ccccc1 (stereo not drawn)")
"Y"
>>> assigned_class("Cc1nc(C)c(OCC(=O)NCCN2CCN(Cc3ccccc3Cl)CC2)nc1C")
"Y"
>>> assigned_class("CCc1nc(OCCN2CCN(Cc3ccccc3)CC2)c(C(C)C)nc1CC")
"Y"
>>> assigned_class("CCCCCCc1nc2c(nc1OCCN1CCN(c3ccccc3OC)CC1)CCCC2")
"N"
>>> assigned_class("CCCCCCCCc1nc2c(nc1OCCN1CCN(CCCC)CC1)CCCC2")
"Y"
>>> assigned_class("CCCCCc1nc2c(nc1OCCN1CCCN(Cc3ccc(F)cc3)CC1)CCCC2")
"N"
>>> assigned_class("CCc1nc(C)c(C)nc1OC(C(=O)NCCN1CCN(Cc2ccc([N+](=O)[O-])cc2)CC1)c1ccccc1 (stereo not drawn)")
"N"
>>> assigned_class("CCc1nc(OCCN2CCCCC2)c(C(C)C)nc1CC")
"Y"
>>> assigned_class("CCc1nc(C)c(C)nc1OCCN1CCCN(Cc2ccc(Cl)cc2)CC1")
"Y"
>>> assigned_class("CCCCCCCCCCc1nc2c(nc1OCCN1CCN(CCO)CC1)CCCC2")
"Y"
>>> assigned_class("CCCCCc1nc2c(nc1OCCN1CCN(CCCC)CC1)CCCC2")
"Y"
>>> assigned_class("CCCCCCCCCc1nc2c(nc1OCCN1CCN(CCCC)CC1)CCCC2")
"Y"
